biological target: T1, mouse programmed cell death protein 1 Fc fusion protein (mPD-1-Fc), mPD-1 C60S (aa 25-167) (Mus musculus, UniProt Q02242, stabilised); experiment: SPR; Carterra LSA; Fab from the ammonium sulfate precipitate of the culture supernatant immobilised on a NiHC200M chip; hPD-1 (1-1024 nM) or mPD-1-Fc (4-1024 nM) as analyte, fourfold dilution series, no regeneration; HBS-EP pH 7.4, 25 °C; medians over the spots of a construct, KD = koff/kon; settings: one partner purified
T1 construct: not cleaved; source: Expi293F, purified (Protein A, SEC; dimeric fraction); not shown: Fc (human), C-terminal, kept
Cut-off 40000 M⁻¹ s⁻¹ on kon: below means met, at or above means not met.

Determine whether this binder shows kon lower than 40000 M⁻¹ s⁻¹ (ties excluded): toripalimab Fab L.P100N (Fab, V domains shown, as the heavy chain of Sm3; light chain of Sm3 with this change; numbers count from the chain's first residue; source: Brevibacillus, culture supernatant (ammonium sulfate precipitate); not shown: 6xHis, C-terminal, kept; 6xHN, C-terminal, kept) VH: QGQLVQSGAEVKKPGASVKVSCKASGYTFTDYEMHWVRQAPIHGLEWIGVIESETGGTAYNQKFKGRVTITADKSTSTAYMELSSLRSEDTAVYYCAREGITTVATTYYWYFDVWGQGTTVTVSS VL: DVVMTQSPLSLPVTLGQPASISCRSSQSIVHSNGNTYLEWYLQKPGQSPQLLIYKVSNRFSGVPDRFSGSGSGTDFTLKISRVEAEDVGVYYCFQGSHVNLTFGQGTKLEIK
met

Given toripalimab Fab H.M34Y (Fab, V domains shown, heavy chain of Sm3 with this change; numbers count from the chain's first residue; as the light chain of Sm3; source: Brevibacillus, culture supernatant (ammonium sulfate precipitate); not shown: 6xHis, C-terminal, kept; 6xHN, C-terminal, kept) VH: QGQLVQSGAEVKKPGASVKVSCKASGYTFTDYEYHWVRQAPIHGLEWIGVIESETGGTAYNQKFKGRVTITADKSTSTAYMELSSLRSEDTAVYYCAREGITTVATTYYWYFDVWGQGTTVTVSS VL: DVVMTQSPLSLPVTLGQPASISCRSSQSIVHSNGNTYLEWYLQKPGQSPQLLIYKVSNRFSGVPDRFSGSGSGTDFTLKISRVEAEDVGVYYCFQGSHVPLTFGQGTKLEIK , is recorded kon strictly lower than 40000 M⁻¹ s⁻¹?
not met

For this binder, is kon lower than 40000 M⁻¹ s⁻¹? toripalimab Fab H.Q62A (Fab, V domains shown, heavy chain of Sm3 with this change; numbers count from the chain's first residue; as the light chain of Sm3; source: Brevibacillus, culture supernatant (ammonium sulfate precipitate); not shown: 6xHis, C-terminal, kept; 6xHN, C-terminal, kept) VH: QGQLVQSGAEVKKPGASVKVSCKASGYTFTDYEMHWVRQAPIHGLEWIGVIESETGGTAYNAKFKGRVTITADKSTSTAYMELSSLRSEDTAVYYCAREGITTVATTYYWYFDVWGQGTTVTVSS VL: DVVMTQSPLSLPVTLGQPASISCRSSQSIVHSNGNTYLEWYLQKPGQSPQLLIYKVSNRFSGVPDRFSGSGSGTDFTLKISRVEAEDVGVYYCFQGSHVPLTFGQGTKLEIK
met

hey, is kon for toripalimab Fab L.L101G (Fab, V domains shown, as the heavy chain of Sm3; light chain of Sm3 with this change; numbers count from the chain's first residue; source: Brevibacillus, culture supernatant (ammonium sulfate precipitate); not shown: 6xHis, C-terminal, kept; 6xHN, C-terminal, kept) VH: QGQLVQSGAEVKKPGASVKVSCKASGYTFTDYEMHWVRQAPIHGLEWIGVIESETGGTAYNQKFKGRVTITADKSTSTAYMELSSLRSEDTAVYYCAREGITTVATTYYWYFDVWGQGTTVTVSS VL: DVVMTQSPLSLPVTLGQPASISCRSSQSIVHSNGNTYLEWYLQKPGQSPQLLIYKVSNRFSGVPDRFSGSGSGTDFTLKISRVEAEDVGVYYCFQGSHVPGTFGQGTKLEIK lower than 40000 M⁻¹ s⁻¹ or not?
met

Given the entry toripalimab Fab L.V99Y (Fab, V domains shown, as the heavy chain of Sm3; light chain of Sm3 with this change; numbers count from the chain's first residue; source: Brevibacillus, culture supernatant (ammonium sulfate precipitate); not shown: 6xHis, C-terminal, kept; 6xHN, C-terminal, kept) VH: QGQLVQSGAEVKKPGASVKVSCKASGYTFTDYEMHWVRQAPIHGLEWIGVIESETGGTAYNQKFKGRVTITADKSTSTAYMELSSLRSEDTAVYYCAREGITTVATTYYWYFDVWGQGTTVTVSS VL: DVVMTQSPLSLPVTLGQPASISCRSSQSIVHSNGNTYLEWYLQKPGQSPQLLIYKVSNRFSGVPDRFSGSGSGTDFTLKISRVEAEDVGVYYCFQGSHYPLTFGQGTKLEIK , would its reported kon be below 40000 M⁻¹ s⁻¹?
not met
